System: S. aureus 29213
MEASURED_ATTRIBUTE: MIC (µg/mL)

# GIVEN_SMILES, RELATION_OPERATOR, OBSERVED_MEASUREMENT
rows = [
    ("O=C1CSc2ccc(N3C[C@H](CNCCn4c(=O)c5cccc6c5n(c4=O)CCC6)OC3=O)nc2N1", "≤", 0.016),
    ("O=C1CSc2ccc(N3C[C@H](CCCn4c(=O)c5cccc6c5n(c4=O)CCC6)OC3=O)cc2N1", "≤", 0.016),
    ("Cn1c(=O)n(CCC[C@@H]2CN(c3ccc4c(c3)NC(=O)CS4)C(=O)O2)c(=O)c2ccc(Br)cc21", "≤", 0.016),
    ("CCCn1c(=O)n(CCC[C@@H]2CN(c3ccc4c(c3)NC(=O)CS4)C(=O)O2)c(=O)c2ccccc21", "≤", 0.25),
    ("Cn1c(=O)n(CCNC[C@H]2CN(c3ccc4c(n3)NC(=O)CO4)C(=O)O2)c(=O)c2cccc(Cl)c21", "=", 0.031),
    ("O=C1CSc2ccc(N3C[C@H](CCCn4c(=O)[nH]c5c(Cl)cccc5c4=O)OC3=O)cc2N1", "≤", 0.016),
    ("Cc1cccc2[nH]c(=O)n(CCC[C@@H]3CN(c4ccc5c(c4)NC(=O)CS5)C(=O)O3)c(=O)c12", "≤", 0.016),
    ("Cc1cccc2c1c(=O)n(CCNC[C@@H]1CN(c3ccc4c(c3)NC(=O)CS4)C(=O)O1)c(=O)n2C", "≤", 0.016),
    ("O=C1CSc2ccc(N3C[C@H](CCCn4c(=O)[nH]c5c(Cl)cccc5c4=O)OC3=O)nc2N1", "≤", 0.016),
    ("Cc1cccc2c(=O)n(CCNC[C@@H]3CN(c4ccc5c(c4)NC(=O)CS5)C(=O)O3)c(=O)[nH]c12", "=", 0.25),
    ("O=C1CSc2ccc(N3C[C@@H](CCCn4c(=O)[nH]c5c(Cl)cccc5c4=O)OC3=O)cc2N1", "≤", 0.016),
    ("O=C1COc2ccc(N3C[C@H](CCCn4c(=O)[nH]c5c(Cl)cccc5c4=O)OC3=O)nc2N1", "≤", 0.016),
    ("O=C1CSc2ccc(N3C[C@@H](CCCn4c(=O)[nH]c5c(F)cccc5c4=O)OC3=O)cc2N1", "=", 0.031),
    ("COc1cc2[nH]c(=O)n(CCC[C@@H]3CN(c4ccc5c(c4)NC(=O)CS5)C(=O)O3)c(=O)c2cc1OC", "=", 0.25),
    ("COC(=O)/C=C/c1ccc2c(=O)n(CCNC[C@H]3CN(c4ccc5c(c4)NC(=O)CS5)C(=O)O3)c(=O)n(C)c2c1", "=", 0.125),
    ("COc1ccc2c(=O)n(CCC[C@H]3CN(c4ccc5c(c4)NC(=O)CS5)C(=O)O3)c(=O)[nH]c2c1", "=", 0.125),
    ("O=C1CSc2ccc(N3C[C@H](CCCn4c(=O)[nH]c5ccccc5c4=O)OC3=O)cc2N1", "≤", 0.016),
    ("Cc1ccc2c(=O)n(CCC[C@@H]3CN(c4ccc5c(c4)NC(=O)CS5)C(=O)O3)c(=O)[nH]c2c1", "=", 0.063),
    ("O=C1COc2ccc(N3C[C@@H](CCCn4c(=O)[nH]c5c(Cl)cccc5c4=O)OC3=O)nc2N1", "=", 0.031),
    ("Cn1c(=O)n(CCCC[C@@H]2CN(c3ccc4c(n3)NC(=O)CO4)C(=O)O2)c(=O)c2ccccc21", "=", 0.063),
    ("O=C1COc2ccc(N3C[C@H](CCCn4c(=O)c5cccc6c5n(c4=O)CCC6)OC3=O)nc2N1", "≤", 0.016),
    ("Cc1ccc2[nH]c(=O)n(CCC[C@@H]3CN(c4ccc5c(c4)NC(=O)CS5)C(=O)O3)c(=O)c2c1", "=", 0.063),
]

---

Form: system (S. aureus 29213), quantity (MIC), values below.

# MOLECULE, SYSTEM_UNDER_TEST, MIC
rows = [
    ("Cc1cccc2c(=O)n(CCC[C@H]3CN(c4ccc5c(n4)NC(=O)CS5)C(=O)O3)c(=O)[nH]c12 [Example 14]", "S. aureus 29213", "≤ 0.016 µg/mL"),
    ("Cc1cccc2c1c(=O)n(CCNC[C@H]1CN(c3ccc4c(n3)NC(=O)CS4)C(=O)O1)c(=O)n2C [Example 58]", "S. aureus 29213", "≤ 0.016 µg/mL"),
    ("Cc1cccc2c(=O)n(CCC[C@H]3CN(c4ccc5c(c4)NC(=O)CS5)C(=O)O3)c(=O)[nH]c12 [Example 13]", "S. aureus 29213", "≤ 0.016 µg/mL"),
]

---

System: S. aureus 29213

# GIVEN_SMILES, MIC
rows = [
    ("Cc1cccc2[nH]c(=O)n(CCC[C@H]3CN(c4ccc5c(c4)NC(=O)CS5)C(=O)O3)c(=O)c12", "≤ 0.016 µg/mL"),
    ("Cn1c(=O)n(CCNC[C@H]2CN(c3ccc4c(n3)NC(=O)CS4)C(=O)O2)c(=O)c2cccc(Cl)c21", "≤ 0.016 µg/mL"),
    ("Cc1cccc2c(=O)n(CCC[C@@H]3CN(c4ccc5c(c4)NC(=O)CS5)C(=O)O3)c(=O)[nH]c12", "≤ 0.016 µg/mL"),
]
